Biological target: UniProt:Q07343
Experiment: In-vitro assay for PDE4 enzymes, real-time enzyme-coupled spectrophotometric assay, PDE4B Activity (Table 10)
Type: biochemical
Conditions: human PDE4B (hPDE4B), enzyme-coupled spectrophotometric assay; read-out: PDE4B Activity, hPDE4B
Where a name gives a salt, the structure may show the parent alone.
Give measured IC50 for each item. Keep answers brief.

Field: example entries. Status: answers known.
INSERT INTO results (compound, recorded_result) VALUES
  ('COc1ccc(Cn2cncn2)nc1-c1cccc([N+](=O)[O-])c1 [P-024]', '21 to 40 µM'),
  ('COc1ccc(Cc2ccc(F)cc2)cc1-c1ccc2nonc2c1 [P-004]', '5 to 20 µM'),
  ('COc1ccc(Cc2ccc(C(C)(C)N)nc2)cc1-c1cccc(Cl)c1 [P-600, hydrochloride]', '21 to 40 µM');

Hi team, please reply with IC50 for each item in this list.
1. COc1ccc(Cc2ccc(C#N)cc2)c(O)c1-c1cccc([N+](=O)[O-])c1 [P-138]
2. COc1ccc(Cc2ccc(NC(N)=O)cc2)c(F)c1-c1cccc(Cl)c1 [P-243]
3. COc1ccc(Cn2cnc(CO)c2)cc1-c1cccc([N+](=O)[O-])c1 [P-154]
4. NC(=O)Nc1ccc(Cc2ccc(OC3CSC3)c(-c3cccc(Cl)c3)c2)cc1 [P-553]
5. COc1ccc(Cc2ccc3c(c2)OCO3)nc1-c1cccc([N+](=O)[O-])c1 [P-021]
6. COc1ccc(Cc2ccccc2CO)cc1-c1cccc([N+](=O)[O-])c1 [P-134]

["< 5 µM", "< 5 µM", "< 5 µM", "< 5 µM", "5 to 20 µM", "5 to 20 µM"]

###

Target: PDE4B (Homo sapiens, UniProt Q07343)
Sequence (Q07343 whole entry): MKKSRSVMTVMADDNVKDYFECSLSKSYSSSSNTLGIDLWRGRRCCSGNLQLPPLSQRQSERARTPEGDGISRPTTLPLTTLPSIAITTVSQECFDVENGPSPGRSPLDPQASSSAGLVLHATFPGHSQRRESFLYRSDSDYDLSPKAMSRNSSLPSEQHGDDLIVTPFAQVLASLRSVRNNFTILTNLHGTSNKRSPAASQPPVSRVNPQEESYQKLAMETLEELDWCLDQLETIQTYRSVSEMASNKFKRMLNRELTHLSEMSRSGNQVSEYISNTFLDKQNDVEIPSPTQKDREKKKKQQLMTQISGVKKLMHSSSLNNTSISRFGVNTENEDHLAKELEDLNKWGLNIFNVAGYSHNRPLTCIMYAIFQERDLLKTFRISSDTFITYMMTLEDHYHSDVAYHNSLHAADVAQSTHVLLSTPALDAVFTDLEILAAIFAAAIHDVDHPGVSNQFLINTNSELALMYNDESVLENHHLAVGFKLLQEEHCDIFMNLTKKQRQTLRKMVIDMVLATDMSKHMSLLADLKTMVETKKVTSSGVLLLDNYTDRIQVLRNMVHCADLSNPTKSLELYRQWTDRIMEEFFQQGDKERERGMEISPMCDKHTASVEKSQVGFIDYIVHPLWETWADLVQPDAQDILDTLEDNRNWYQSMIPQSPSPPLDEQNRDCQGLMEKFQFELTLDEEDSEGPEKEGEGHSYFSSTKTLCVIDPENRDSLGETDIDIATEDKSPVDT
Assay: In-vitro assay for PDE4 enzymes, real-time enzyme-coupled spectrophotometric assay, PDE4B Activity (Table 10)
Assay type: biochemical
Conditions: human PDE4B (hPDE4B), enzyme-coupled spectrophotometric assay; read-out: PDE4B Activity, hPDE4B
Endpoint: IC50

Field: example entries. Status: answers known.
INSERT INTO measurements (molecule, recorded_result) VALUES
  ('COc1ccc(Cc2cnc(Cl)nc2)c(F)c1-c1cccc(Cl)c1 [P-392]', '< 5 µM'),
  ('COc1ccc(Cc2ccc(CN)cc2)c(F)c1-c1cccc([N+](=O)[O-])c1 [P-148]', '< 5 µM'),
  ('COc1ccc(Cn2cc(-c3ccccn3)cn2)c(F)c1-c1cccc(Cl)c1 [P-527]', '5 to 20 µM'),
  ('COCc1ccc(OC)c(-c2cccc([N+](=O)[O-])c2)n1 [P-025]', '21 to 40 µM'),
  ('Nc1ccc(Cc2ccc(OC(F)F)c(-c3cccc(Br)c3)c2F)cc1 [P-317]', '< 5 µM'),
  ('COc1ccc(Cc2ccc(-n3cncn3)nc2)c(F)c1-c1cccc(Cl)c1 [P-412]', '< 5 µM'),
  ('COc1ccc(CN2CC[C@H](O)C2)cc1-c1cccc([N+](=O)[O-])c1 [P-070]', '21 to 40 µM'),
  ('COc1ccc(Cn2cc(-c3cnccn3)cn2)c(F)c1-c1cccc(Cl)c1 [P-545]', '< 5 µM');

Switching to the query record.
Any idea what its IC50 is? The molecule is O=[N+]([O-])c1cccc(-c2cc(Cc3ccc(F)cc3)ccc2OC(F)F)c1 [P-067] < 5 µM

###

Give measured IC50 for each item. Keep answers brief.
Target: UniProt:Q08499
Sequence (Q08499 whole entry): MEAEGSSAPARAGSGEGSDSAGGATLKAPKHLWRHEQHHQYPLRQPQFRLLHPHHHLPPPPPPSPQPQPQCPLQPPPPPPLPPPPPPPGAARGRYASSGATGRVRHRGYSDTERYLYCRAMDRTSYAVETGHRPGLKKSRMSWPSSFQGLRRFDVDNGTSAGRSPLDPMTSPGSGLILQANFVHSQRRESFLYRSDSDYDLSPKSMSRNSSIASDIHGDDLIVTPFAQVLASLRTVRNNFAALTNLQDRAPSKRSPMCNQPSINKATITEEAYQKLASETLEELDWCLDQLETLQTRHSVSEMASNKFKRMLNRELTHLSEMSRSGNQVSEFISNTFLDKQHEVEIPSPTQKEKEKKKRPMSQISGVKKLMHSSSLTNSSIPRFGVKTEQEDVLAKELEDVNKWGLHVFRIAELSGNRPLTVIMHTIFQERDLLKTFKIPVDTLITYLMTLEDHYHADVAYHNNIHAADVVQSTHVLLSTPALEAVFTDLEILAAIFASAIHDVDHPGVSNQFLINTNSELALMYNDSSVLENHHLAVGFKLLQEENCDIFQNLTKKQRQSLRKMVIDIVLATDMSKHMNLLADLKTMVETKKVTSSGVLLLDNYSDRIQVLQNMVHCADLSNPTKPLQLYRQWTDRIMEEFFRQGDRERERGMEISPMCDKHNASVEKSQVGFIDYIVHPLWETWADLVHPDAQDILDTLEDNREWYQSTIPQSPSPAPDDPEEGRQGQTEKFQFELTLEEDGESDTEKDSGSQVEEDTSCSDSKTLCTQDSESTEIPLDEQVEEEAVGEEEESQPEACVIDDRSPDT
Test: In-vitro assay for PDE4 enzymes, real-time enzyme-coupled spectrophotometric assay (Table 9)
Type: biochemical
Settings: human PDE4D; activity class, Table 9; read-out: hPDE4D

INSERT INTO measurements (record_smiles, recorded_result) VALUES
  ('CCNc1ccc(Cc2ccc(OC)c(-c3cccc(Cl)c3)c2F)cn1', '< 5 µM');

Hi team, please reply with IC50 for each item in this list.
1. CCOc1ccc(Cc2ccc(NC(N)=O)nc2)c(F)c1-c1cccc(Cl)c1
2. COc1ccc(CN2CCOC2=O)cc1-c1cccc([N+](=O)[O-])c1
3. COc1ccc(Cc2ccc(Br)nc2)c(F)c1-c1cccc(Cl)c1
4. COc1ccc(Cc2ccc(NC(C)=O)cc2)c(F)c1-c1cccc(N2CCOCC2)c1
5. COc1ccc(Cn2ccccc2=O)cc1-c1cccc(Cl)c1
6. COc1ccc(CN2C(=O)C(=O)c3ccccc32)cc1-c1cccc([N+](=O)[O-])c1

< 5 µM
< 5 µM
< 5 µM
5 to 20 µM
5 to 20 µM
5 to 20 µM

Hi team, please reply with IC50 for each item in this list.
1. COc1ccc(Cc2cnc(NC(N)=O)nc2)c(F)c1-c1cccc(Cl)c1
2. NC(=O)COc1ccc(Cc2ccc(NC(N)=O)cc2)cc1-c1cccc(Cl)c1

1: < 5 µM; 2: < 5 µM

###

Give measured IC50 for each item. Keep answers brief.
Molecular target: PDE4B (Homo sapiens, UniProt Q07343)
Assay: In-vitro assay for PDE4 enzymes, real-time enzyme-coupled spectrophotometric assay, PDE4B Activity (Table 10)
Type: biochemical
Settings: human PDE4B (hPDE4B), enzyme-coupled spectrophotometric assay; read-out: PDE4B Activity, hPDE4B
Counter-ions that a name gives are not always drawn.

Field: example entries. Status: answers known.
INSERT INTO assay_data (molecule, system, recorded_result) VALUES
  ('CCOC(=O)NCc1ccc(Cc2ccc(OC)c(-c3cccc(Cl)c3)c2F)cn1', 'PDE4B (Homo sapiens, UniProt Q07343)', '< 5 µM'),
  ('O=[N+]([O-])c1cccc(-c2cc(Cc3ccc(F)cc3)ccc2O)c1', 'PDE4B (Homo sapiens, UniProt Q07343)', '< 5 µM'),
  ('COC(=O)Nc1nnc(Cc2ccc(OC)c(-c3cccc(Cl)c3)c2F)s1', 'PDE4B (Homo sapiens, UniProt Q07343)', '< 5 µM');

Hi team, please reply with IC50 for each item in this list.
1. CCNC(=O)OCc1ccc(Cc2ccc(OC)c(-c3cccc(Cl)c3)c2)cn1 [P-570, hydrochloride]
2. COc1ccc(Cc2ccc(CN)c(O)c2)c(F)c1-c1cccc(Cl)c1

1: < 5 µM; 2: 21 to 40 µM

###

Biological target: PDE4B (Homo sapiens)
Experiment: In-vitro assay for PDE4 enzymes, real-time enzyme-coupled spectrophotometric assay, PDE4B Activity (Table 10)
Type: biochemical
Settings: human PDE4B (hPDE4B), enzyme-coupled spectrophotometric assay; read-out: PDE4B Activity, hPDE4B
Counter-ions that a name gives are not always drawn.
Give measured IC50 for each item. Keep answers brief.

Field: example entries. Status: answers known.
INSERT INTO measurements (compound, recorded_result) VALUES
  ('CNC(=O)NCc1ccc(Cc2ccc(OC(F)F)c(-c3cccc(Cl)c3)c2)cn1 [P-598, hydrochloride]', '< 5 µM'),
  ('COc1ccc(Cc2ccc(NS(C)(=O)=O)cc2)cc1-c1cccc(Cl)c1', '< 5 µM');

Hi team, please reply with IC50 for each item in this list.
1. COc1ccc(Cc2ccc(NC(C)=O)cc2)c(F)c1-c1cccc(Br)c1
2. CCOc1ccc(Cc2ccc(NC(N)=O)cc2)cc1-c1cccc(Cl)c1
3. COc1ccc(Cc2ccno2)c(O)c1-c1cccc([N+](=O)[O-])c1
4. COc1ccc(Cn2ccc(C#N)cc2=O)cc1-c1cccc([N+](=O)[O-])c1
5. COc1ccc(Cc2cnc(NS(C)(=O)=O)nc2)c(F)c1-c1cccc(Cl)c1
6. COc1ccc(CN2C(=O)c3ccccc3C2=O)cc1-c1cccc([N+](=O)[O-])c1
7. NC(=O)Nc1ccc(Cc2ccc(OC(F)F)c(-c3cccc([N+](=O)[O-])c3)c2F)cc1

1: < 5 µM; 2: < 5 µM; 3: < 5 µM; 4: 5 to 20 µM; 5: 5 to 20 µM; 6: 5 to 20 µM; 7: < 5 µM

###

Molecular target: UniProtKB Q07343
Assay: In-vitro assay for PDE4 enzymes, real-time enzyme-coupled spectrophotometric assay, PDE4B Activity (Table 10)
Assay type: biochemical
Settings: human PDE4B (hPDE4B), enzyme-coupled spectrophotometric assay; read-out: PDE4B Activity, hPDE4B
pIC50: −log10 of the molar value. Structures can show the parent of a compound that is named as a salt.
Endpoint: pIC50

Field: example entries. Status: answers known.
INSERT INTO results (molecule, system, recorded_result) VALUES
  ('CCOC(=O)Nc1ccc(Cc2ccc(OC)c(-c3cccc(C#N)c3)c2F)cn1', 'UniProtKB Q07343', '> 5.30'),
  ('COc1ccc(CCn2ccccc2=O)cc1-c1cccc([N+](=O)[O-])c1', 'UniProtKB Q07343', '> 5.30'),
  ('COc1ccc(COC(C)C)nc1-c1cccc([N+](=O)[O-])c1', 'UniProtKB Q07343', '4.40 to 4.68');

Hi team, please reply with pIC50 for each item in this list.
1. CCNC(=O)Nc1ccc(Cc2ccc(OC)c(-c3cccc(Cl)c3)c2F)cn1
2. COc1ccc(Cc2ccc3cnc(C(N)=O)n3c2)c(F)c1-c1cccc(Cl)c1
3. COc1ccc(Cc2ccc(NC(N)=O)cc2)cc1-c1cccc(Cl)c1
4. CNc1ccc(Cc2ccc(OC)c(-c3cccc(C(C)=O)c3)c2F)cc1 [P-331, hydrochloride]
5. COc1ccc(Cn2cc(NC(C)=O)ccc2=O)cc1-c1cccc([N+](=O)[O-])c1
6. O=C1CCCN1Cc1ccc(O)c(-c2cccc([N+](=O)[O-])c2)c1O
7. COc1ccc(CN2CCCC2=O)cc1-c1ccccc1
8. COc1ccc(Cc2ccc(=O)[nH]n2)cc1-c1ccc2nonc2c1

["> 5.30", "4.70 to 5.30", "> 5.30", "> 5.30", "4.70 to 5.30", "4.70 to 5.30", "4.70 to 5.30", "4.70 to 5.30"]

Hi team, please reply with pIC50 for each item in this list.
1. COc1ccc(Cc2ccc(NC(N)=O)nc2)c(F)c1-c1cccc(Cl)c1
2. COc1ccc(Cn2ccc(N)cc2=O)cc1-c1cccc([N+](=O)[O-])c1
3. COc1ccc(Cc2cccc(CO)c2)cc1-c1cccc([N+](=O)[O-])c1
4. COc1ccc(Cc2ccc(C#N)c(F)c2)c(F)c1-c1cccc(Cl)c1

1: > 5.30; 2: 4.70 to 5.30; 3: > 5.30; 4: > 5.30

Hi team, please reply with pIC50 for each item in this list.
1. CCNC(=O)Nc1ccc(Cc2ccc(OC)c(-c3cccc(Cl)c3)c2F)c[n+]1[O-]
2. COc1ccc(Cn2ccnc2-c2cccs2)c(F)c1-c1cccc(Cl)c1 [P-559, hydrochloride salt]
3. COc1ccc(CN2CCNC2=O)nc1-c1cccc([N+](=O)[O-])c1

1. > 5.30
2. > 5.30
3. 4.70 to 5.30

Hi team, please reply with pIC50 for each item in this list.
1. CCNC(=O)Nc1nnc(Cc2ccc(OC)c(-c3cccc(Cl)c3)c2F)s1
2. COc1ccc(Cn2ccnc2)cc1-c1ccc2c(c1)OCO2
3. COc1ccc(Cn2cnnc2)cc1-c1cccc([N+](=O)[O-])c1
4. COc1ccc(Cc2ccc(NC(N)=O)c(O)c2)c(F)c1-c1cccc(Cl)c1
5. COc1ccc(Cc2ccc(NC(=O)OC(C)(C)C)cc2)cc1-c1cccc([N+](=O)[O-])c1

1. > 5.30
2. > 5.30
3. > 5.30
4. > 5.30
5. > 5.30

Hi team, please reply with pIC50 for each item in this list.
1. COc1ccc(Cc2ccc(CNC(=O)N3CCN(C)CC3)nc2)c(F)c1-c1cccc(Cl)c1
2. CCOC(=O)N(CC)c1ccc(Cc2ccc(OC)c(-c3cccc(Cl)c3)c2F)cn1
3. COc1ccc(C(=O)c2ccc(N)cc2)cc1-c1cccc(F)c1
4. COc1ccc(Cc2cccc(N)c2)cc1-c1cccc(Cl)c1

["4.70 to 5.30", "4.70 to 5.30", "> 5.30", "> 5.30"]

Hi team, please reply with pIC50 for each item in this list.
1. [2H]C([2H])(c1ccc(NC(N)=O)cc1)c1ccc(OC)c(-c2cccc(Cl)c2)c1
2. COc1ccc(Cc2ccc(F)cc2)cc1-c1cccc(-c2nnco2)c1

["> 5.30", "> 5.30"]

Hi team, please reply with pIC50 for each item in this list.
1. COc1ccc(CC2CCCS2)c(F)c1-c1cccc([N+](=O)[O-])c1 (centres unmarked) [P-128]
2. COc1ccc(CN2CCOC2=O)cc1-c1cccc(C(F)(F)F)c1
3. COc1ccc(Cc2ccc(N)nc2)c(F)c1-c1cccc(Cl)c1

> 5.30
4.70 to 5.30
> 5.30

Hi team, please reply with pIC50 for each item in this list.
1. COc1ccc(COc2ccc([N+](=O)[O-])cc2)c(F)c1-c1cccc(Cl)c1
2. COc1ccc(COc2ccc(N)cc2)c(F)c1-c1cccc(Cl)c1
3. COc1ccc(Oc2ccc(=O)[nH]n2)cc1-c1cccc([N+](=O)[O-])c1
4. COc1ccc(Cc2ccc(CNC(N)=O)c(F)c2)c(F)c1-c1cccc(C(C)=O)c1

1. > 5.30
2. > 5.30
3. 4.40 to 4.68
4. > 5.30

Hi team, please reply with pIC50 for each item in this list.
1. COc1ccc(Cc2ccc(NC(N)=O)cc2)c(F)c1-c1cccc(Br)c1
2. COc1ccc(Cc2ccc(N(C)C)cc2)c(F)c1-c1cccc(Cl)c1

> 5.30
> 5.30
